System: THRa:RXRa (NR concentration 90 nM, RXRa partner concentration 90 nM)
Experiment: PBM binding z-score (relative to random genomic background probes); higher = stronger binding; sequences stand for … in GC…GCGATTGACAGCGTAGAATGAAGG
Response key: MET means PBM binding z-score >= 3; NOT MET means PBM binding z-score < 3.

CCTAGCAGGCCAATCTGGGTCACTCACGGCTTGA
MET

Check the entry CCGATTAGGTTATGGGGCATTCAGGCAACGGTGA : does PBM binding z-score equal or exceed 3?
NOT MET

Entry TAGCCTAGATCATGGGCCAGTATACCACGCGAAC : is its PBM binding z-score no less than 3?
NOT MET

Determine whether this sequence has PBM binding z-score no lower than 3: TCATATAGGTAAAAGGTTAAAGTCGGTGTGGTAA
NOT MET

Quick check, PBM binding z-score >= 3? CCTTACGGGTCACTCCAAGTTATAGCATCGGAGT
NOT MET

Can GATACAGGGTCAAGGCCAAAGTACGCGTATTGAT be said to have PBM binding z-score at or above 3?
MET

Check if PBM binding z-score >= 3 (inclusive). Item: TCTTCTAGATCAAGCAGGTTAAGAAAGCCTGAGT
NOT MET

Would you say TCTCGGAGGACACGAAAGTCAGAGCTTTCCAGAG shows PBM binding z-score at minimum 3?
NOT MET

Is PBM binding z-score for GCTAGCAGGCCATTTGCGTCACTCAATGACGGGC at or above 3?
NOT MET

Evaluate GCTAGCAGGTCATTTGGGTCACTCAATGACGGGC : PBM binding z-score at minimum 3?
MET

Determine whether this sequence has PBM binding z-score no lower than 3: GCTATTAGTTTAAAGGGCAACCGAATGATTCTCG
NOT MET

----------
System: RARb homodimer (NR concentration 270 nM)
Test: PBM binding z-score (relative to random genomic background probes); higher = stronger binding; sequences stand for … in GC…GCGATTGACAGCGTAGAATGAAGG
Quantity: PBM binding z-score
No unit in the answer, please; the number alone is enough.

Could you share which PBM binding z-score value was measured for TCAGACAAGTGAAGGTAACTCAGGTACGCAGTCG ?
-0.322

----------
Overview of recorded PBM binding z-score for various sequences
System: THRa homodimer (NR concentration 90 nM)
Assay: PBM binding z-score (relative to random genomic background probes); higher = stronger binding; sequences stand for … in GC…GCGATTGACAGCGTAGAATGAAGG
Please reply with the number alone, leaving off any unit.

Use the examples below as a reference point.
TCATATAGGTAAATGCTAGGTGAAAGTTCGATCT
0.835
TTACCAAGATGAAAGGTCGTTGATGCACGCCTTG
-0.262
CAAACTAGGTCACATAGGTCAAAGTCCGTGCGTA
1.78
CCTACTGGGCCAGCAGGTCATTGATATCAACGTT
0.347
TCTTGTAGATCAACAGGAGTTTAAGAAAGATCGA
-1.05

Param readout = PBM binding z-score; param system = THRa homodimer (NR concentration 90 nM); param query = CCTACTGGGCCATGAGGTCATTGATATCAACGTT ; response: value
4.36

----------
System: THRa homodimer (NR concentration 90 nM)
Experiment: PBM binding z-score (relative to random genomic background probes); higher = stronger binding; sequences stand for … in GC…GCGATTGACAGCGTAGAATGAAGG
Output schema: class label derived from PBM binding z-score. Mapping: band A = under -0.2, band B = from -0.2 up to 1, band C = 1 and over

Please review the following examples before continuing.
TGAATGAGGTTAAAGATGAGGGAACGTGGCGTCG
band B
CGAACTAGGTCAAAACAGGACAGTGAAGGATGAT
band B
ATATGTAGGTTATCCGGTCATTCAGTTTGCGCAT
band C

Please report the category associated with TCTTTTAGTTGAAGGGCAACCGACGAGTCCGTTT , nothing else.
band B

For this sequence, which bin applies? ATAACGAGGGCAATGAGTTGATAGCACGGGTGGC
band A

Dear colleague, I would appreciate it if you could identify the bin for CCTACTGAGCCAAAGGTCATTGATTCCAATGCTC and reply at your convenience.
band C

Which PBM binding z-score category applies to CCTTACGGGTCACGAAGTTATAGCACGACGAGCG here?
band B

Returns: class label. Input: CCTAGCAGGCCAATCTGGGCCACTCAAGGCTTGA
band A

----------
Tested on: RARa homodimer (NR concentration 270 nM)
Experiment: PBM binding z-score (relative to random genomic background probes); higher = stronger binding; sequences stand for … in GC…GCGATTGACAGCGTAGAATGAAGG
Quantity: PBM binding z-score
Write the value as a bare number.

// known answers, use as guide
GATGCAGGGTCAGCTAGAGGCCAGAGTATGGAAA
0.285
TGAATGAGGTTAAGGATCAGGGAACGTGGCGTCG
0.367
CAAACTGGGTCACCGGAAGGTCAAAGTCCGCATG
0.623
AGAATGAGGTTATACGTAGATCAGGGAGGAAAGT
0.507

So what's the measured PBM binding z-score for this one? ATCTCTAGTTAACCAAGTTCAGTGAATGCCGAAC
1.21

What value of PBM binding z-score has been recorded for this entry: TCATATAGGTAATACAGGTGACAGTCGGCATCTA
1.35

I have this sequence here, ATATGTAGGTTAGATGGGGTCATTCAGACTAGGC , and I need its recorded PBM binding z-score.
1.98

----------
Tested on: LXRb homodimer (NR concentration 270 nM)
Assay: PBM binding z-score (relative to random genomic background probes); higher = stronger binding; sequences stand for … in GC…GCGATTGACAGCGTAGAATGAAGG
Measured PBM binding z-score by item
API doc: respond with a numeric literal and nothing else, no unit.

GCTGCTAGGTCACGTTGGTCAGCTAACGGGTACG
-0.378

Quick check: PBM binding z-score of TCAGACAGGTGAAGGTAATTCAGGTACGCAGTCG ?
0.0602

Can you share its PBM binding z-score? I mean this sequence: GCTATTAGTTAAAAGGGCAACCGAATGATTCTCG
-0.5

Request the reported PBM binding z-score associated with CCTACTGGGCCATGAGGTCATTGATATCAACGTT
-0.168

Please report the recorded PBM binding z-score for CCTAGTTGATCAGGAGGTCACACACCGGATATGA .
1

----------
Test system: PPARg DBDmut IVT, anti-PPARg (DBD mutation: PPARg1 K132A/R137A, NR concentration 270 nM)
Assay: PBM binding z-score (relative to random genomic background probes); higher = stronger binding; sequences stand for … in GC…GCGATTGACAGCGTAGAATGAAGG
Tag: y if measured PBM binding z-score is not below -0.03, n if it is.

CGTCCATGGTCAAAGGTCAGTGAAGAGATGACGG
y

Confirm if PBM binding z-score reported for the sequence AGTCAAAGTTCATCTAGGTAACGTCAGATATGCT is -0.03 or above.
y

Kindly determine if PBM binding z-score recorded for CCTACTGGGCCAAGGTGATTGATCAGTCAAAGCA is above or exactly -0.03.
n

Check the entry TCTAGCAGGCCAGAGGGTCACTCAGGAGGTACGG : does PBM binding z-score equal or exceed -0.03?
n

I'd appreciate it if you could say whether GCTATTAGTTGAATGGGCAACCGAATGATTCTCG has PBM binding z-score at least equal to -0.03.
y

Hello, I need to know if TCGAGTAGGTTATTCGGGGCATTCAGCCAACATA has measured PBM binding z-score not below -0.03. Thanks!
n

Could you please find out whether GTACAAAGGTGAATAGGTCGTTGATGAGTAGGCG has PBM binding z-score that meets -0.03 or exceeds it?
y

Please indicate if the recorded PBM binding z-score for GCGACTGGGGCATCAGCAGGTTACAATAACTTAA meets or exceeds -0.03.
n

Could you tell me if the measured PBM binding z-score of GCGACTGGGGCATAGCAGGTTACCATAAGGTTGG reaches -0.03 or more?
n

Identify whether the reported PBM binding z-score of the following sequence is -0.03 or greater: TCTAGTTGGTCACGGAGGCCACACACGACGGGTA
y

Tell me whether PBM binding z-score is at least -0.03 here: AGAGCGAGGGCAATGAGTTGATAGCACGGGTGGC
n

Identify whether the reported PBM binding z-score of the following sequence is -0.03 or greater: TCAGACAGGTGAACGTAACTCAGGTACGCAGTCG
n

Does the reported PBM binding z-score for CCTATTGGGCCAAGGTCATTGATCAGTCAAAGCA fall at or above the -0.03 mark?
y

Could you verify whether the entry CATCGGAGGACAACAGGAGGTCAGAGCTGCCAGA shows PBM binding z-score of no less than -0.03?
n

hey, is PBM binding z-score for this one >= -0.03? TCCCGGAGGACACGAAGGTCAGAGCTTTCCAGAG
n

Please indicate if the recorded PBM binding z-score for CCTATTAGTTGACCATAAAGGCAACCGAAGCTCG meets or exceeds -0.03.
y

Given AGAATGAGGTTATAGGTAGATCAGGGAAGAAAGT , state whether its PBM binding z-score is at least -0.03.
y

Given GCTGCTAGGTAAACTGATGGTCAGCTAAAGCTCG , state whether its PBM binding z-score is at least -0.03.
n

Does the reported PBM binding z-score for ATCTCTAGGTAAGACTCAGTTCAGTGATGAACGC fall at or above the -0.03 mark?
y

Kindly determine if PBM binding z-score recorded for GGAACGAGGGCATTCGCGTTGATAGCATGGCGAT is above or exactly -0.03.
n

Decide: is the reported value of PBM binding z-score for AATCCAGGGTCACTAGGCCAGAGTAGGTACGAAT equal to or greater than -0.03?
y
